# MEASUREMENT TARGET: ENPP1 (hENPP1-ECD-His) (Homo sapiens (Human))
Classify: Condition met when IC50 is strictly less than 5 nM; Condition not met when IC50 is not.

Would you please look over these solved cases?
COc1ccc2c(Nc3ccc(CC(=O)NO)cc3)ncnc2c1 [Compound 10]
Condition met
COc1ccc2c(CN3CCC(C(C)(C)C(=O)NO)C3)ccnc2n1 (stereo not drawn) [Compound 157]
Condition not met
COc1ccc2c(NC3CCN(C(C)(C)C(=O)NO)C3)ccnc2n1 (stereo not drawn) [Compound 144]
Condition not met
COc1ccc2c(Nc3cc(F)c(C(C)C(=O)NO)c(F)c3)ccnc2n1 (stereo not drawn) [Compound 48]
Condition met
COc1ccc2c(Oc3ccc(C(C)(C)C(=O)NO)c(Cl)c3)ccnc2n1 [Compound 103]
Condition not met

Q) Field: below-cutoff. Rule: recorded IC50 strictly less than 5 nM. Subject: COc1cc2nccc(Nc3ccc(CC(=O)NO)c(F)c3)c2cn1 [Compound 189]
A) Condition met

Q) Input Cn1ncc2c(Nc3ccc(C4(C(=O)NO)CCOCC4)cc3)ncnc21 [Compound 207] ; condition: IC50 strictly below 5 nM. Does it hold?
A) Condition not met

Q) Quick check: does Cn1ncc2c(Nc3ccc(CC(=O)NO)cc3)ccnc21 [Compound 40] have IC50 under 5 nM?
A) Condition met

Q) Please indicate whether the reported IC50 of COc1cc2ncnc(Nc3ccc(C(C(=O)NO)C(C)C)cc3)c2cn1 (stereo not drawn) [Compound 187] is strictly below 5 nM.
A) Condition not met

Q) For COc1ccc2c(Nc3ccc(CC(=O)NO)c(OC)c3)ccnc2n1 [Compound 79] , is the recorded IC50 below the cut-off of 5 nM?
A) Condition met

Q) Here's an entry: COc1ccc2c(Oc3ccc(C(OC)C(=O)NO)cc3)ccnc2n1 (stereo not drawn) [Compound 85] . Is its IC50 below 5 nM?
A) Condition met

Q) Threshold test, IC50 < 5 nM: COc1ccc2c(Oc3ccc(CC(=O)NO)c(F)c3)ccnc2n1 [Compound 25]
A) Condition met

Q) hey, is IC50 for COc1ccc2c(Nc3ccc(CC(=O)NO)cn3)ccnc2n1 [Compound 45] lower than 5 nM or not?
A) Condition met

###

# MEASUREMENT TARGET: ENPP1 (hENPP1-ECD-His) (Homo sapiens (Human), UniProt P22413)
# Sequence (P22413 98-925): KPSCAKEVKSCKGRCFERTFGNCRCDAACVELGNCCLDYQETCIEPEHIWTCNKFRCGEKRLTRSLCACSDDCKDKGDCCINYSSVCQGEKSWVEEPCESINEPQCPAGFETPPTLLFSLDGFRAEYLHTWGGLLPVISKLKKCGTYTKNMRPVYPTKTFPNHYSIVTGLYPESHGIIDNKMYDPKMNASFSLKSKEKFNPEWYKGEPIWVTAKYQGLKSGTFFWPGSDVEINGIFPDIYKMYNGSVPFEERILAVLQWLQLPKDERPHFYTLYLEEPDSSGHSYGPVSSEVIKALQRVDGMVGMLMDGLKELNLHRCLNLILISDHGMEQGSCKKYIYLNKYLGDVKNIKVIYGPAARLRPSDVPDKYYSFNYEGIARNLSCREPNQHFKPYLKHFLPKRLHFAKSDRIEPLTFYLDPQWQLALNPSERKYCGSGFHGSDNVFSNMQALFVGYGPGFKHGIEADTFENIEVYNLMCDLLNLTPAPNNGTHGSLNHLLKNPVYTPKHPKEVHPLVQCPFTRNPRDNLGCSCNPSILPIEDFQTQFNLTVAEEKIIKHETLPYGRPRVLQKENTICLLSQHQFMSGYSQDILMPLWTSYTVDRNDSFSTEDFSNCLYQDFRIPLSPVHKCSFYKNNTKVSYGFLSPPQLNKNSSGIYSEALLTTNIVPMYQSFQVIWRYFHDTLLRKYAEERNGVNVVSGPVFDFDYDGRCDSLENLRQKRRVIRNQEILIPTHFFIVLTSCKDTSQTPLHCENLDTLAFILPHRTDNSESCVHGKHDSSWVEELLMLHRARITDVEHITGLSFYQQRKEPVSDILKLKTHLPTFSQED
Hi! Just check whether IC50 is below 6 nM. Below gives rule met, equal or above gives rule not met.

Use these answered entries as a reference point.
COc1cc2nccc(Nc3ccc(C(C(=O)NO)C(C)C)cc3)c2cn1 (stereo not shown) [Compound 177]
rule not met
Cn1ncc2c(Nc3ccc(C(C)(C)C(=O)NO)cc3)ncnc21 [Compound 68]
rule met
Cc1ccc2c(Nc3ccc(CC(=O)NO)cc3)ncnc2n1 [Compound 60]
rule not met
Cn1ncc2c(Oc3ccc(C4(C(=O)NO)CCCC4)cc3)ccnc21 [Compound 129]
rule met
CCn1ncc2c(Nc3ccc(CC(=O)NO)cc3)ccnc21 [Compound 49]
rule met
COc1ccc2c(NC3CCN(CC(=O)NO)C3)ccnc2n1 (stereo not shown) [Compound 143]
rule met
COc1ccc2c(Cc3ccc(C4(C(=O)NO)CCOCC4)cc3)ccnc2n1 [Compound 171]
rule met
CCn1ncc2c(Nc3ccc(CC(=O)NO)cc3)ncnc21 [Compound 33]
rule met

Q) I wonder whether COc1ccc2c(Nc3ccc(CC(=O)NO)nc3)ccnc2n1 [Compound 44] has IC50 below 6 nM. Can you tell?
A) rule met

Q) A record lists COc1ccc2c(N[C@H]3CC[C@H](CC(=O)NO)CC3)ccnc2n1 [Compound 89] . Is its IC50 below 6 nM?
A) rule not met

Q) Check if IC50 falls below 6 nM for COc1ccc2c(Nc3ccc(C(C)(C)C(=O)NO)cc3)ccnc2n1 [Compound 69] .
A) rule met

Q) Regarding COc1ccc2c(Oc3ccc(C4(C(=O)NO)CCOCC4)c(C)c3)ccnc2n1 [Compound 139] , kindly confirm whether its IC50 is beneath 6 nM.
A) rule met

Q) Does the reported IC50 of COc1cc2nccc(Nc3ccc(C4(C(=O)NO)CCOCC4)cc3F)c2cn1 [Compound 178] stay below 6 nM?
A) rule met

Q) Please indicate whether the reported IC50 of COc1ccc2c(Oc3ccc4c(c3)CCCC4C(=O)NO)ccnc2n1 (stereo not shown) [Compound 145] is strictly below 6 nM.
A) rule met

Q) Strictly below 6 nM: is that where IC50 of COc1ccc2c(OC3CCN(C(C)(C)C(=O)NO)CC3)ccnc2n1 [Compound 116] sits?
A) rule not met

Q) Item Cn1ncc2c(Nc3ccc(CC(=O)NO)cc3)ncnc21 [Compound 15] : IC50 beneath 6 nM, strictly?
A) rule not met

Q) In plain terms, does COc1ccc2c(N3CCc4cc(C5(C(=O)NO)CCOCC5)ccc43)ccnc2n1 [Compound 158] come in under 6 nM for IC50?
A) rule not met

Q) Is the reported IC50 for COc1ccc2c(Oc3cccc(CC(=O)NO)c3)ccnc2n1 [Compound 75] strictly below 6 nM?
A) rule not met

Q) Quick check: does CCn1ncc2c(Nc3ccc(C(C)C(=O)NO)c(F)c3)ccnc21 (stereo not shown) [Compound 65] have IC50 under 6 nM?
A) rule met

Q) For COc1cc2nccc(Nc3cc(F)c(C(C(=O)NO)C(C)C)c(F)c3)c2cn1 (stereo not shown) [Compound 191] , is the recorded IC50 below the cut-off of 6 nM?
A) rule not met

Q) Given COc1ccc2c(Nc3ccc(CC(=O)NO)c4ccccc34)ccnc2n1 [Compound 96] , is recorded IC50 strictly lower than 6 nM?
A) rule not met

Q) Just wondering, is IC50 of Cn1ncc2c(Oc3ccc(C4(C(=O)NO)CC4)cc3)ccnc21 [Compound 80] below 6 nM?
A) rule met

Q) is_below(IC50, 6 nM) for COc1ccc2c(Oc3ccc(C4(C(=O)NO)CCN(C)CC4)cc3)ccnc2n1 [Compound 146] ?
A) rule not met

Q) Field: below-cutoff. Rule: recorded IC50 strictly less than 6 nM. Subject: CCn1ncc2c(Oc3ccc(C4(C(=O)NO)CC4)cc3)ccnc21 [Compound 54]
A) rule met

Q) Hello, I'm reviewing records and need to know if IC50 of COc1ccc2c(Oc3ccc(C(C(=O)NO)C(C)C)c(F)c3)ccnc2n1 (stereo not shown) [Compound 150] is below 6 nM. Could you check?
A) rule not met

Q) is_below(IC50, 6 nM) for COc1ccc2c(Oc3ccc(C(C)C(=O)NO)cc3F)ccnc2n1 (stereo not shown) [Compound 72] ?
A) rule met
